MEASURED_ON: Hck (UniProt P08631)
Sequence (P08631 whole entry, looked up): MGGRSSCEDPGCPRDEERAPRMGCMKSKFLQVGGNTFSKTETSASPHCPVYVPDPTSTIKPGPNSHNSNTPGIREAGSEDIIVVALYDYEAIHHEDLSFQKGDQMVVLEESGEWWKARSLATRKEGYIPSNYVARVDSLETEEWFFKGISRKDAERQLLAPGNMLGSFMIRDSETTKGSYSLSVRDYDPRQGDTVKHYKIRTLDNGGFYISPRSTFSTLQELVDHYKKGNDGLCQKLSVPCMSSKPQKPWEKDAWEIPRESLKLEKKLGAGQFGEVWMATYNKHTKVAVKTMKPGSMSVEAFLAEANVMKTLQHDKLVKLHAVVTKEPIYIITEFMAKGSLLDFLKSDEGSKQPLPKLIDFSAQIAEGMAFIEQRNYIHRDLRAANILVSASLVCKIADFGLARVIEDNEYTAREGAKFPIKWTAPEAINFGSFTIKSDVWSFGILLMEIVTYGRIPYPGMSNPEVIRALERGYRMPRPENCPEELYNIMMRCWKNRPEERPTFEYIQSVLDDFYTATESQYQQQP
TEST_DETAILS: phosphorylation enrichment, bacterial display (enrichment ratio); higher = better substrate or ligand; peptides without Tyr show the background;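 also: 11-residue human phosphosite peptides and single-mutation variants displayed on the E. coli surface, counted by deep sequencing, each peptide's frequency after selection divided by its frequency in the unselected input library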;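 also: frequency after pTyr selection over input frequency; kinase dosed for 20-30% of maximal phosphorylation in three min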

CONSTRUCT_SEQUENCE	phosphorylation enrichment
SVMAEYGLFAA [VSX2_Y219_G223A_YF]	2.76
MICSAYALGGL [CPS1_Y590_R587C]	0.72
CFTGKYTLPPG [HSPB1_Y142_R140G]	0.519
QMVGMYAFSYM [AVPR2_Y124_S126F]	1.52
KIKLNYTLPQD [NRAP_Y523_N519I]	0.462
GDFLSYREFHS [ERBIN_Y1107_YF]	0.385
AVAFVYYKSIG [ADGRL4_Y301]	0.463
PLQNTYNFNVL [SLC4A1_Y553_K551N_YF]	0.57
FISVGYVDDTQ [HLA-B_Y51]	0.444
FSAGTYPRLEE [SYCN_Y108]	0.406
VMLENYSNLVS [ZFP69_Y109]	0.49
KEKLCYVAPDF [ACTA1_Y220_L223P]	0.489
KPFRVYCDMNT [FGB_Y269_YF]	0.513
LTTEAYEWEPC [ELMOD3_Y61_R66C]	1.88
FRASFYRRGDR [LTK_Y677_YF]	0.463
CTTIHYNFMCN [TP53_Y234_Y236F]	0.456
LSAPEYGPKLK [TBC1D14_Y46]	0.537
VQQVIYATGAL [MYH7_Y422]	7.57
VSNFNYFYHRE [KCNA1_Y413]	0.501
YIATQYSLRPR [LBR_Y166]	0.568
DGKYSYLKVGH [GRM3_Y480_G475D]	0.455
KQLGEYKFQNA [ALB_Y425_E420K]	0.375
GKGGSYSQAAC [HLA-B_Y344]	0.419
GSCQEYTGAPY [NAXD_Y85_G81S]	0.545
VAVTKYCKEEL [ATP7B_Y1078]	0.593
GITVAYTIPKK [UBA5_Y372]	0.317
IEDPFYGNDSD [ACP1_Y133_YF]	0.628
ALAHKCHGGGG [HBB_Y146_Y146C]	0.45
LPKEQYLCTKE [AFG3L2_Y614_Y616C]	0.409

###

System: Fer (mouse)
TEST_DETAILS: phosphorylation enrichment, bacterial display (enrichment ratio); higher = better substrate or ligand; peptides without Tyr show the background
READOUT_KIND: phosphorylation enrichment

CONSTRUCT_SEQUENCE	MEASURED_ON	RECORDED_MEASUREMENT
VIKDKYPKARF [APTX_Y209_YF]	Fer (mouse)	0.288
GDFLSYREFHS [ERBIN_Y1107_YF]	Fer (mouse)	0.489
FYVVRYCWLRR [MPZ_Y181]	Fer (mouse)	0.51
PGRRFYVVACD [RNASE3_Y134]	Fer (mouse)	0.52
VLNDAYENLTR [SYNE2_Y3255]	Fer (mouse)	0.581
EAGKVYLKAPM [CBFB_Y96]	Fer (mouse)	0.411
RIILLYIFLKN [STXBP1_Y411]	Fer (mouse)	0.45
LIDGYYRLTED [JAK2_Y373_A377E]	Fer (mouse)	0.564
AFLQTYAHEVS [PCDHGA5_Y753_S754A]	Fer (mouse)	0.521
NESVDYRATFP [MET_Y1003]	Fer (mouse)	0.454
RQEEEYKRFSE [SFSWAP_Y133_L136F]	Fer (mouse)	0.663
RRIHRYRGHLW [VHL_Y112_S111R]	Fer (mouse)	0.376
RRIHSNRGHLW [VHL_Y112_Y112N]	Fer (mouse)	0.485
RSRQIYDAYIM [GRK3_Y109]	Fer (mouse)	14.6
GLAELYEYKKK [CKAP5_Y1854]	Fer (mouse)	0.32
MDYRSYPHEYG [RBM10_Y44_R46H]	Fer (mouse)	0.404
NVTGHYISPFH [PPA2_Y59]	Fer (mouse)	0.325
ICTVDYLLRLQ [RYR1_Y3921]	Fer (mouse)	0.736
MICSAYALGGL [CPS1_Y590_R587C]	Fer (mouse)	0.551
GVSFIYTIDGS [DCX_Y105_R102S_YF]	Fer (mouse)	0.491
YLAAIYPTVGQ [NF1_Y2508_T2507I]	Fer (mouse)	0.58
EFKKKYSDADI [CKAP5_Y1860_YF]	Fer (mouse)	0.331
QADVTYVNTQL [MERTK_Y872_I871T]	Fer (mouse)	0.714
YVSSFYHAFSG [ACTN4_Y265]	Fer (mouse)	0.564
GVLKEYVVKVL [CPS1_Y529_G530V]	Fer (mouse)	0.384
HFMKLYEEKTG [PARP1_Y618]	Fer (mouse)	0.277
QKLPLYILENN [VPS13B_Y2774_S2773L]	Fer (mouse)	0.551
FSKRIYKGMVA [PCDH15_Y931]	Fer (mouse)	0.369
TLNHQYDFTFH [CSNK1A1_Y292_D297H_YF]	Fer (mouse)	0.685
